Reference for the values: patent US12129308

- Study System: activated human MMP13 (human, UniProt P45452 104-471)
- Method: cell-based or functional assay
// reported IC50, human fluorogenic collagen assay for each item listed
Field: numeric (nM). Do not append units.

For reference, reported IC50, human fluorogenic collagen assay for C0101PMP059F06 (VHH, Profile 2 Nanobody) VHH: EVQLVESEGGTVEPGESLRLACAAPGPGIRTNFMAWYRQAPEKEREMVASISRDGSTHYADSVKGRFTISSDNATSTFYLQMNSLQVEDTAVYYCATDPHILHNDRAGAFLVEDYDHWGQGTQVTVSS stands at 140

For reference, reported IC50, human fluorogenic collagen assay for C0101PMP517A01 (VHH, Profile 2 Nanobody; also called C0101517A01; C010100087 (parental)) VHH: DVQLVESGGGLVQPGGSLRLSCAASGRTFSSYAMGWFRQAPGKEREFVAAISWSGGSTYYADSVKGRFTISRDNSKNTVYLQMNSLRPEDTAVYYCTAALAVYGPNRYRYGPVGEYNYWGQGTLVTVSS stands at 10.9
